All values here come from patent US20190202907A1.

Reported kon values for the following binders.
# TARGET_SYSTEM: T1, human ST2L (human, UniProt Q01638 19-328, limits assumed)
# T1 construct: also called IL-1R4; IL-33Ra
# T1 sequence (looked up): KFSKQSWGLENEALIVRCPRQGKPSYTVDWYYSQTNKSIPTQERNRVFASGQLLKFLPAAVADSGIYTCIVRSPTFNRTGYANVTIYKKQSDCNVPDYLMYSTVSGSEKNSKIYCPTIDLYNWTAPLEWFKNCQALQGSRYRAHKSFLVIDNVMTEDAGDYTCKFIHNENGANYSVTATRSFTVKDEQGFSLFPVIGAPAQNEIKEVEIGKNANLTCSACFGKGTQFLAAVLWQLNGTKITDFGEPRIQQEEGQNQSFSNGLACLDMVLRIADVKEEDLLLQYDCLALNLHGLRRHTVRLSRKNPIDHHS
# MEASUREMENT_NOTES: affinity table; method not stated
Report as a plain number; the unit M⁻¹ s⁻¹ is understood.

Study these solved cases before continuing.
[[record]]
binder = "STLM206 (antibody, from another filing, V domains shown) VH: EVQLLESGGGLVQPGGSLRLSCAASGFTFSIYDMIWVRQAPGKGLEWVSTIRGEGGSTYYADSVKGRFTISRDNSKNTLYLQMNSLRAEDTAVYYCARDPWSTEGSFFVLDYWGQGTLVTVSS VL: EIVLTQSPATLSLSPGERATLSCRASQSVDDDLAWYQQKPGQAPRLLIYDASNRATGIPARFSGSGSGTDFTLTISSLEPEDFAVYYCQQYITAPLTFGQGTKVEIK"
experimental_value = "6.39e+06"

[[record]]
binder = "STLM103 (antibody, from another filing, V domains shown) VH: EVQLLESGGGLVQPGGSLRLSCAASGFTFSFYDMFWVRQAPGKGLEWVSSIRGEGGRTDYADSVKGRFTISRDNSKNTLYLQMNSLRAEDTAVYYCARDPWSTEGSFFVLDYWGQGTLVTVSS VL: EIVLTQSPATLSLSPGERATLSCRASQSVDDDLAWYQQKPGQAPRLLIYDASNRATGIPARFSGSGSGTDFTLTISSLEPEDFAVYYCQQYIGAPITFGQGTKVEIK"
experimental_value = "3.97e+06"


For reference, reported kon for STLM208 (antibody, V domains shown) VH: EVQLLESGGGLVQPGGSLRLSCAASGFTFSIYDMIWVRQAPGKGLEWVSSIRGEGGGTYYADSVKGRFTISRDNSKNTLYLQMNSLRAEDTAVYYCARDPWSTEGSFFVLDYWGQGTLVTVSS VL: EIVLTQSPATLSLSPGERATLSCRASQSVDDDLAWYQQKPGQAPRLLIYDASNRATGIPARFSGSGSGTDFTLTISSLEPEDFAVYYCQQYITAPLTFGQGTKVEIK stands at 5.97e+06
